experiment: Solubility in water; assay type: physicochemical
Some molecules, each annotated with its measured solubility.
Your answer is read as µg/mL, so omit the unit and give the number.

- Molecule: "CC[C@@H](CO)Nc1nc(NCc2ccc(-c3ccccn3)cc2)c2ncn(C(C)C)c2n1 [Compound of formula Ib]"
  Units Text: "µg/mL"
  Test Result: 3.3

Kindly review the next molecule as well.
solubility reading for CCC(CO)Nc1nc(NCc2ccc(-c3ccccc3)cc2)c2ncn(C(C)C)c2n1 (centres unmarked) [Compound of formula Ic] : 0.5

* * *

biological target: CK1δ/e; test: Kinase assay CK1; conditions: read-out: IC50 CK1; 15 μM ATP, 30° C., buffer A
Form field: pIC50 (one value per entry).
Notebook: values listed as pIC50 are -log10 of the concentration (mol/L).

- Compound: "CC[C@@H](CO)Nc1nc(NCc2ccc(-c3ccccn3)cc2)c2ncn(C(C)C)c2n1 [Compound of formula Ib]"
  Target Desc: "CK1δ/e"
  pIC50: 6.21

Next item in the queue.
// recorded pIC50 for CC[C@H](CO)Nc1nc(NCc2ccc(-c3ccccn3)cc2)c2ncn(C(C)C)c2n1 [Compound of formula Ia] : 6.40
